Data provenance: ChEMBL document CHEMBL1128335

test: Partition coefficient (logP); assay type: physicochemical; conditions: octanol/water; read-out: logP
Endpoint label: logP

Please review the entries below; each comes with its answer.
- Molecule: "CCCCCN1CCCC(C(=O)N2CCCN(C(=O)C3CCCN(CCCCC)C3)CC2)C1 (stereo not drawn)"
  logP: 4.63
- Molecule: "CC(C)N(C(=O)C1CCCN(Cc2ccc(CN3CCCC(C(=O)N(C(C)C)C(C)C)C3)cc2)C1)C(C)C (stereo not drawn)"
  logP: 5.55
- Molecule: "CC1CCCN(Cc2ccc(CN3CCCC(C)C3)cc2)C1 (stereo not drawn)"
  logP: 4.6
- Molecule: "CCN(Cc1ccccc1)C(=O)C1CCCN(Cc2ccc(CN3CCCC(C(=O)N(CC)Cc4ccccc4)C3)cc2)C1 (stereo not drawn)"
  logP: 5.76

P: CC(C)N(C)C(=O)C1CCCN(Cc2ccc(CN3CCCC(C(=O)N(C)C(C)C)C3)cc2)C1 (stereo not drawn)
Q: CC(=O)NCC1CCCN(Cc2ccc(CN3CCCC(CNC(C)=O)C3)cc2)C1 (stereo not drawn)
R: CCN(CC)C(=S)C1CCCN(Cc2ccc(CN3CCCC(C(=S)N(CC)CC)C3)cc2)C1 (stereo not drawn)
S: O=C(C1CCCN(Cc2ccc(CN3CCCC(C(=O)N(Cc4ccccc4)Cc4ccccc4)C3)cc2)C1)N(Cc1ccccc1)Cc1ccccc1 (stereo not drawn)
Ordering: ascending logP. Return value: ordered labels per request.
Q, P, R, S
